Target: T1, human CD276 protein (human, UniProt Q5ZPR3 29-534)
T1 sequence (looked up): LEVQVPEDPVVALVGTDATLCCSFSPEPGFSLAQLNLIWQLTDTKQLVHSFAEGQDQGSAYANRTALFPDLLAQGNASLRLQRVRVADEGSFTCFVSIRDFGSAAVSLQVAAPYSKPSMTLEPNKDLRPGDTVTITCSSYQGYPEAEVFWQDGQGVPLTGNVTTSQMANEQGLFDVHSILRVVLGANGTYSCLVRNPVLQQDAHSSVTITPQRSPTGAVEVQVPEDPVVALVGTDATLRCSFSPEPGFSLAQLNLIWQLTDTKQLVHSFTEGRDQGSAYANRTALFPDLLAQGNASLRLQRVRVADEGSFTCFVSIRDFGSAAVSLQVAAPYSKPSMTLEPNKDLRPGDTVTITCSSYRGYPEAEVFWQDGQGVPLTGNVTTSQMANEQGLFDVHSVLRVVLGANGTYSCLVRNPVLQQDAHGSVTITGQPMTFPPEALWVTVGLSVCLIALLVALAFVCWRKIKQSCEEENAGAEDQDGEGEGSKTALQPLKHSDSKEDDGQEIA
Test: cell-based or functional assay
Lab note: compare Top cytotoxicity (%), CDC with 90%, writing T if less and F if equal or more.

• 15-C8-B5-G7 (human IgG1 chimeric antibody) (antibody, V domains shown, human IgG1 chimeric antibody of the mouse clone) VH: QVQLQQPGAELVKPGASVKLSCKASDYTFTSHWMHWVKQRPGQGLEWIGMIHPNSGTTHYNENFKNKATLTVDNSSSTAYMQLSSLTSEDSAVYYCAWGSSNSYFYAMAYWGQGTSVTVSS VL: QAVVTQESALTTSPGETVTLTCRSSTGAVTTSNYANWVQEKPAHLFTGLIGGTNNRAPGVPARFSGSLIGDKAALTITGAQTEDEAIYFCALWFSNHLVFGGGTKLTVL = T
• MGC018 (antibody, V domains shown) VH: EVQLVESGGGLVKPGGSLRLSCAASGFTFSSYGMSWVRQAPGKGLEWVATINSGGSNTYYPDSLKGRFTISRDNAKNSLYLQMNSLRAEDTAVYYCARHDGGAMDYWGQGTTVTVSS VL: DIQMTQSPSSLSASVGDRVTITCRASESIYSYLAWYQQKPGKAPKLLVYNTKTLPEGVPSRFSGSGSGTDFTLTISSLQPEDFATYYCQHHYGTPPWTFGQGTRLEIKR = F
• 20-A2-D10-G8 (human IgG1 chimeric antibody) (antibody, V domains shown, human IgG1 chimeric antibody of the mouse clone) VH: QVQLQQSGPELVRPGVSVKISCKGSGYTFTDYTMHWVKESHAQSLEWIGVISTYYGNTNYNQNFKGKATLTVDKSSSTAYMELAGLTSEDSAIYYCARASYGSGYGPYYWYFDVWGAGTTVTVSS VL: DIQMTQSPASLFASVGETVTITCRASEKIYSYLAWYFQKQGKSPQFLVYNANALAEGVPSRFSGSGSGTQFSLKIKSLQPEDFGTYYCQHHYGSPVTFGAGSKLELK = T
• 16-G3-D10-C10 (human IgG1 chimeric antibody) (antibody, V domains shown, human IgG1 chimeric antibody of the mouse clone) VH: QIQLVQSGPELKKPGETVKISCKASGYTFRNYGMNWVKQGPGKDLKWMGWINPYTGEPTYIGDFKGRFAFSLETSANSAYLQINNLNNEDMATYFCARDDGYWYTMDYWGQGTSVTVSS VL: DVVMTQTPPSLPVSLGDQASIPCRSSQSLVHSNGITYLHWYLQKPGQSPKLLIYKVSNRFSGVPDRFSGSGSGTDFTLKISRVEAEDLGVYFCSQSTHVPWTFGGGTKLEIK = F
